- target.under.test: hCB1 (Homo sapiens, UniProt P21554)
- Sequence (P21554 whole entry): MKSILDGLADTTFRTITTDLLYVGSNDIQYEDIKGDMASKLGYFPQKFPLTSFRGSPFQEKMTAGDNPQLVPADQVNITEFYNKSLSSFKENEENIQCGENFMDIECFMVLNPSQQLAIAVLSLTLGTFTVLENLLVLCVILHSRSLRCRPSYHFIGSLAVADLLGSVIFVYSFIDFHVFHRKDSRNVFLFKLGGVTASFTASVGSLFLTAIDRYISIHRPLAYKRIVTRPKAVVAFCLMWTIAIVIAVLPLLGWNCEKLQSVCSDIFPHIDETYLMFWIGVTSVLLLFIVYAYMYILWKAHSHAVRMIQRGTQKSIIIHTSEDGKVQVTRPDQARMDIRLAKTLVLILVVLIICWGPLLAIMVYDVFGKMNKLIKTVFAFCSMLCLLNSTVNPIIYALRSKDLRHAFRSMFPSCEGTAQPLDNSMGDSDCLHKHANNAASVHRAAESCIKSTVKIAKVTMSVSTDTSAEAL
- assay.name: bioSensAll ebBRET signaling profiling, hCB1
- Format: cell-based
- Design: host or cells: HEK293SL cells, transient PEI transfection
- condition.summary: Log [Compound] (M) -7.14267; single replicate values, FigS6a
Gi1 hCB1 by entry:

- compound: "Cc1cc(C(=O)NC(c2ccccc2)c2ccco2)nn1-c1cccc(C#N)c1 (centres unmarked)"
  target.under.test: "hCB1 (Homo sapiens, UniProt P21554)"
  Gi1 hCB1: 12.2681
- compound: "Cc1nc(CC2CC2)oc1-c1nc(Cc2cc3c(cc2Br)OCO3)no1"
  target.under.test: "hCB1 (Homo sapiens, UniProt P21554)"
  Gi1 hCB1: 3.012
- compound: "Cc1cc(C(=O)N(C)C(c2ccccc2)c2ccco2)nn1-c1cccc(C(F)(F)F)c1 (centres unmarked)"
  target.under.test: "hCB1 (Homo sapiens, UniProt P21554)"
  Gi1 hCB1: -0.5276
- compound: "Cc1cc(C(=O)N(C)C(c2ccco2)c2ccco2)nn1-c1cccc(C(F)(F)F)c1"
  target.under.test: "hCB1 (Homo sapiens, UniProt P21554)"
  Gi1 hCB1: 0.7674
- compound: "Cc1cc(C(=O)N2CC3(CCC3)[C@@H]2[C@@H]2CCCO2)nn1-c1cccc(C(F)(F)F)c1"
  target.under.test: "hCB1 (Homo sapiens, UniProt P21554)"
  Gi1 hCB1: 0.4282

All values here come from paper PMC11882969.
